- experimental-system: PERK (Homo sapiens, UniProt Q9NZJ5)
- Construct: purchased Carna 05-155
- Sequence (Q9NZJ5 563-1116 limits assumed): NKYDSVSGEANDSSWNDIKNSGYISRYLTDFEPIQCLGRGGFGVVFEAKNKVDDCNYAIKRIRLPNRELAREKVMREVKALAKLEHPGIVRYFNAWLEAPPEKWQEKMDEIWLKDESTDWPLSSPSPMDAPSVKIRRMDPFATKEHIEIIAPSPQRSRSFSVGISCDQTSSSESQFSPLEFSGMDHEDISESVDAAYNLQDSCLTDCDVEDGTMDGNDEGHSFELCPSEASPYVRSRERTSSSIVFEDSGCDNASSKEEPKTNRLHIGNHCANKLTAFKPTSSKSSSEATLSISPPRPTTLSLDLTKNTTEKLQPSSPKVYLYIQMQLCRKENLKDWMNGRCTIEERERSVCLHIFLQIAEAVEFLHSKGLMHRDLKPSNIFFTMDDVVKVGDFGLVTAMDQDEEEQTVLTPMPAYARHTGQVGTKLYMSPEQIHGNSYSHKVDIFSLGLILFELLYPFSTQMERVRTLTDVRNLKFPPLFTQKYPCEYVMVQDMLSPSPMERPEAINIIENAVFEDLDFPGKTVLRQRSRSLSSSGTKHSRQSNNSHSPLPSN
- experimental-protocol: ISR kinase cell-free biochemical assay (Carna), PERK
- stated-conditions: ATP 8 µM
pIC50: −log10 of the molar value.

molecule: Cc1nc(N)c2c(-c3ccc(NC(=O)[C@H](O)c4cccc(C(F)(F)F)c4)cc3C)cn(C)c2n1 [Compound 26]
pIC50: 8.33

---

- experimental-protocol: Mouse plasma PK after oral gavage
- Format: in vivo
- stated-conditions: female, CD1, mouse, mice, 10 mg/kg PO
property: half-life (h)

molecule: Cc1cc(F)cc([C@@H](O)C(=O)Nc2ccc(-c3cn(C)c4nc(C)nc(N)c34)c(C)c2)c1 [Compound 41]
experimental-result: 2.7

molecule: Cc1nc(N)c2c(-c3ccc(NC(=O)[C@H](O)c4cccc(F)c4)cc3C)cn(C)c2n1 [Compound 24]
experimental-result: 2.1

molecule: Cc1nc(N)c2c(-c3ccc(NC(=O)[C@H](O)c4cccc(Cl)c4)cc3C)cn(C)c2n1 [Compound 28]
experimental-result: 2.4

molecule: Cc1nc(N)c2c(-c3ccc(NC(=O)[C@H](O)c4cccc(F)c4)c(F)c3C)cn(C)c2n1 [Compound 65]
experimental-result: 2.2

molecule: Cc1nc(N)c2c(-c3ccc(NC(=O)[C@H](O)c4cccc(Cl)c4)cc3F)cn(C)c2n1 [Compound 48]
experimental-result: 2.1

molecule: Cc1nc(N)c2c(-c3ccc(NC(=O)[C@H](O)c4cc(F)cc(C(F)(F)F)c4)cc3C)cn(C)c2n1 [Compound 39]
experimental-result: 2.9

molecule: Cc1nc(N)c2c(-c3ccc(NC(=O)[C@H](O)c4cc(F)cc(F)c4)cc3C)cn(C)c2n1 [Compound 38]
experimental-result: 2
